The molecules listed here are annotated with their pIC50.
biological target: c-kit (Homo sapiens, UniProt P10721); assay: c-kit assays of Examples 40 and 41 (AlphaScreen kinase assays at 10 and 100 μM ATP, 33P-ATP filter assay, M-07e SCF-stimulated proliferation and phosphorylation)
Sequence (P10721 with tags, fused parts or gaps): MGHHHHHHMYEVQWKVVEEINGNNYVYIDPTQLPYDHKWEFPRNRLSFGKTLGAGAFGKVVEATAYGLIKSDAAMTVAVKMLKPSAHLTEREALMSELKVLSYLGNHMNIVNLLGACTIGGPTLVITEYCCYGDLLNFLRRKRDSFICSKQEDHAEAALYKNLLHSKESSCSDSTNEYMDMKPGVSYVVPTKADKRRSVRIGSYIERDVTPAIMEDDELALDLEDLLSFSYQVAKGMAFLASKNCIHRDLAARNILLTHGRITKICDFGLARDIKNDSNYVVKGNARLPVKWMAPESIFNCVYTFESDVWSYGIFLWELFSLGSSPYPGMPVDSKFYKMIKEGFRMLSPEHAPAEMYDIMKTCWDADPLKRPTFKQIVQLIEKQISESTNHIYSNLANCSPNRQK
pIC50: −log10 of the molar value.

Look over these answered cases.
Query for c-kit (Homo sapiens, UniProt P10721): what pIC50 does the record show for `Fc1c(CNc2ccc(Cc3c[nH]c4ncccc34)cn2)cccc1C(F)(F)F` ?
> 6.00

Query for c-kit (Homo sapiens, UniProt P10721): what pIC50 does the record show for `Fc1ccc(CNc2ncc(Cc3c[nH]c4ncccc34)cn2)c(C(F)(F)F)c1` ?
> 6.00

Query for c-kit (Homo sapiens, UniProt P10721): what pIC50 does the record show for `Fc1ccc(CNc2ncc(Cc3c[nH]c4ncc(Cl)cc34)cn2)c(F)c1` ?
> 6.00

***
Query for c-kit (Homo sapiens, UniProt P10721): what pIC50 does the record show for `COc1cnc2[nH]cc(Cc3ccc(NCc4ccccc4C(F)(F)F)nc3)c2c1` ?
> 6.00

Query for c-kit (Homo sapiens, UniProt P10721): what pIC50 does the record show for `N#Cc1cnc2[nH]cc(Cc3ccc(NCc4ccccc4OC(F)(F)F)nc3)c2c1` ?
> 6.00

* * *

biological target: UniProtKB P10721; assay: c-kit assays of Examples 40 and 41 (AlphaScreen kinase assays at 10 and 100 μM ATP, 33P-ATP filter assay, M-07e SCF-stimulated proliferation and phosphorylation)
pIC50: −log10 of the molar value.
Property label: pIC50

What does the data say about its pIC50? Entry: `FC(F)(F)Oc1ccccc1CNc1ncc(Cc2c[nH]c3ncc(Cl)cc23)cn1`
> 6.00

What does the data say about its pIC50? Entry: `Cc1cnc2[nH]cc(Cc3ccc(NCc4ccccc4Cl)nc3)c2c1`
> 6.00

What does the data say about its pIC50? Entry: `Cc1nc(-c2ccc(C(F)(F)F)cc2)sc1Cn1nc(C)c(Cc2c[nH]c3ncccc23)c1C`
> 6.00

Now for another entry.
What does the data say about its pIC50? Entry: `Cc1cnc2[nH]cc(Cc3ccc(NCc4cc(F)ccc4F)nc3)c2c1`
> 6.00

* * *

// values below are pIC50; system is MAP4K4 (HGK) (Homo sapiens, UniProt O95819)
Sequence (O95819 whole entry): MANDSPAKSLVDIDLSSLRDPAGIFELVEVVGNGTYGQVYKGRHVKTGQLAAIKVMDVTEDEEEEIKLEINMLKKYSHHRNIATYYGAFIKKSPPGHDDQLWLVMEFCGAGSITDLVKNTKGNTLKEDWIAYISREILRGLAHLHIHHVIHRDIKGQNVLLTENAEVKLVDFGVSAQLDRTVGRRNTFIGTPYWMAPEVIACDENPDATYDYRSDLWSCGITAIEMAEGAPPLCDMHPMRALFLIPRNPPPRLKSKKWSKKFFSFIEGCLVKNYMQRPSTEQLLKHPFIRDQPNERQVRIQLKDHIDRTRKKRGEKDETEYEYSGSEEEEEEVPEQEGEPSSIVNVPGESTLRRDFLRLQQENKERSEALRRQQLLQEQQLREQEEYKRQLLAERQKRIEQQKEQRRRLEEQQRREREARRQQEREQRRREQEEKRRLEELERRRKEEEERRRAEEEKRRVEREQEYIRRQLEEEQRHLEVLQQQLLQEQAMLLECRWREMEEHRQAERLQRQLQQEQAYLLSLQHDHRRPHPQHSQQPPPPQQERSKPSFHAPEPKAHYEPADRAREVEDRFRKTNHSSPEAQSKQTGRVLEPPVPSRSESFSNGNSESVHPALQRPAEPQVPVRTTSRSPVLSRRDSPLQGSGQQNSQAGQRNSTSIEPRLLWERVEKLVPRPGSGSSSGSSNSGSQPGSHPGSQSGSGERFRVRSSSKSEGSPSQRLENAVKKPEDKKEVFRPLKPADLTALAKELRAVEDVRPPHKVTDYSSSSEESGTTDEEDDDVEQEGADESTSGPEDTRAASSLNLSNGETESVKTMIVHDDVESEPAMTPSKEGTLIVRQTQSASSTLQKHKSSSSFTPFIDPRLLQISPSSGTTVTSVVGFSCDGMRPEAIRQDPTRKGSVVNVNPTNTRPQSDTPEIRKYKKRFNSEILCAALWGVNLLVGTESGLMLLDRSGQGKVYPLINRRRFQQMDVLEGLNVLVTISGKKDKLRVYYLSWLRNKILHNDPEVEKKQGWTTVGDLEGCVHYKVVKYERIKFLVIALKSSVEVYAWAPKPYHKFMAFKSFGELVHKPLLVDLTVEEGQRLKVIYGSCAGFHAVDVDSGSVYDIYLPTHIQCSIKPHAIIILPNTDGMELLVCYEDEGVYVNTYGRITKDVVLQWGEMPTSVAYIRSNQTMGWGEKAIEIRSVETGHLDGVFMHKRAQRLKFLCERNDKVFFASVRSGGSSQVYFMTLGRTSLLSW
pIC50: −log10 of the molar value.

Look over these answered cases.
Query for MAP4K4 (HGK) (Homo sapiens, UniProt O95819): what pIC50 does the record show for `Fc1ccc(CNc2nc(Cl)c(Cc3c[nH]c4ncccc34)s2)nc1` ?
> 6.00

Query for MAP4K4 (HGK) (Homo sapiens, UniProt O95819): what pIC50 does the record show for `O=C(c1cnc(NCc2ccc(F)cc2)s1)c1c[nH]c2ncccc12` ?
> 6.00

***
Query for MAP4K4 (HGK) (Homo sapiens, UniProt O95819): what pIC50 does the record show for `O=C(c1ccc(NCc2ccccc2F)nc1)c1c[nH]c2ncccc12` ?
> 6.00
